- System: sugar beet
- assay_procedure: Test B pre/postemergence sugar beet
- Format: in vivo, Beta vulgaris
- measurement_context: Postemergence, Rate 125 g/ha; scale 0 to 10, 0 is no effect, 10 is complete control
measured_metric: Plant response rating, Sugarbeets
Answer with the value's number alone.

Examples with answers:
compound: CC1CC1n1c(=O)on(C(=O)N(c2ccc(Cl)cc2)C(C)C)c1=O (stereo not shown)
Plant response rating, Sugarbeets: 0

compound: Cc1nnsc1Cn1c(=O)on(C(=O)N(c2ccc(F)cc2)C(C)C)c1=O
Plant response rating, Sugarbeets: 0

compound: CCC(CC)n1c(=O)on(C(=O)N(c2ccccc2)C(C)C)c1=O
Plant response rating, Sugarbeets: 1

Problem: What does the record list as Plant response rating, Sugarbeets for "Cc1c(-n2c(=O)on(C(=O)N(c3ccc(Cl)cc3)C(C)C)c2=O)ccc2ccccc12" ?
Solution: 0

---

- System: wild oat
- assay_procedure: Test B pre/postemergence wild oat
- Assay type: in vivo, Avena fatua
- measurement_context: Rate 250 g/ha, Postemergence; scale 0 to 10, 0 is no effect, 10 is complete control
Entries and their measured Wild oats plant response rating follow.

compound: CC(C)N(C(=O)n1oc(=O)n(CCCCl)c1=O)c1ccc(Cl)cc1
test_result: 0

compound: CC(C)N(C(=O)n1oc(=O)n(CCCCCl)c1=O)c1ccccc1
test_result: 2

compound: C#CCn1c(=O)on(C(=O)N(c2ccccc2)C(C)C)c1=O
test_result: 0

Problem: What does the record list as Wild oats plant response rating for CC(=O)OCC(CCl)n1c(=O)on(C(=O)N(c2ccc(F)cc2F)C(C)C)c1=O (racemic) ?
Solution: 0

---

- Test system: velvetleaf
- assay_procedure: Test B pre/postemergence velvetleaf
- Format: in vivo, Abutilon theophrasti
- measurement_context: Postemergence, Rate 500 g/ha; scale 0 to 10, 0 is no effect, 10 is complete control
- Method: […] At the same time, these crop and weed species were also treated with postemergence applications of test chemicals formulated in the same manner. […] Treated plants and controls were maintained in a greenhouse for twelve to sixteen days, after which all species were compared to controls and visually evaluated. […]
Rule: Plant response rating, Velvetleaf of 5 or more gives label 1; anything lower gives label 0.

compound: C=CCCCn1c(=O)on(C(=O)N(c2ccc(Cl)cc2)C(C)C)c1=O [Compound 546]
class_assignment: label 0

compound: CC(C)N(C(=O)n1oc(=O)n(CCCC(F)(F)F)c1=O)c1ccc(F)cc1F [Compound 526]
class_assignment: label 1

compound: COC(=O)CCCn1c(=O)on(C(=O)N(c2ccc(F)cc2F)C(C)C)c1=O [Compound 513]
class_assignment: label 1

Kindly consider the entry below.
Problem: API: above_or_equal(metric=Plant response rating, Velvetleaf, cutoff=5) for item CC(C)N(C(=O)n1oc(=O)n(CC2CCC2)c1=O)c1ccc(F)cc1F [Compound 521]
Solution: label 0

---

- Test system: crabgrass
- assay_procedure: Test B pre/postemergence crabgrass
- Format: in vivo, Digitaria sanguinalis
- measurement_context: Postemergence, Rate 250 g/ha; scale 0 to 10
Note to self: Crabgrass plant response rating under 6 means Y, ties and anything higher get N.

molecule: CC(C)N(C(=O)n1oc(=O)n(C(C)C(=O)c2ccccc2)c1=O)c1ccc(F)cc1F (stereo not drawn) [Compound 511]
test_system: crabgrass
class_assignment: N

molecule: CC(C)N(C(=O)n1oc(=O)n(CCNC(=O)CCl)c1=O)c1ccccc1 [Compound 492]
test_system: crabgrass
class_assignment: Y

molecule: CC(=O)NCn1c(=O)on(C(=O)N(c2ccc(F)cc2)C(C)C)c1=O [Compound 473]
test_system: crabgrass
class_assignment: Y

Kindly consider the entry below.
Problem: Consider the molecule CC(C)N(C(=O)n1oc(=O)n(C(C)Cl)c1=O)c1ccccc1 (stereo not drawn) [Compound 438] . Is its Crabgrass plant response rating strictly less than 6?
Solution: N
